- assay.protocol: Study 2 plasma pharmacokinetics of verinurad
- Format: in vivo, human
- details: human, plasma, oral; healthy non-Asian participants, single dose 4.5 mg verinurad; geometric mean (gCV%); read-out: t½λz (converted)
quantity.kind: half-life (h)
The reply should contain only the number, in h.

Q: Need half-life of "CC(C)(Sc1ccncc1-c1ccc(C#N)c2ccccc12)C(=O)O" , thanks.
Result: 12.7

====

For each record, write down the corresponding AUC.
- assay.protocol: Study 1 plasma pharmacokinetics of verinurad, allopurinol and oxypurinol
- Type: in vivo, human
- details: human, plasma, oral, healthy Asian participants, 24 mg verinurad + 300 mg allopurinol QD, Day 1; geometric mean (gCV%); read-out: AUCτ
The reply should contain only the number, in ng·h/mL.

Q: Need AUC of Oc1ncnc2[nH]ncc12 [allopurinol, reference compound] , thanks.
Result: 6230

Q: What about this compound? "CC(C)(Sc1ccncc1-c1ccc(C#N)c2ccccc12)C(=O)O"
Result: 415

====

- assay.protocol: Study 2 plasma pharmacokinetics of verinurad
- Assay type: in vivo, human
- details: human, plasma, oral, 12 mg, healthy non-Asian participants, single dose of verinurad 4.5, 6, or 12 mg; read-out: geometric mean Cmax, range over doses
quantity.kind: Cmax

Q: Need Cmax of CC(C)(Sc1ccncc1-c1ccc(C#N)c2ccccc12)C(=O)O [verinurad] , thanks.
Result: 11.8 to 28.6 ng/mL

====

- assay.protocol: Study 2 plasma pharmacokinetics of verinurad
- Format: in vivo, human
- details: human, plasma, oral, 12 mg, healthy non-Asian participants, multiple-dose assessment 12 mg verinurad QD, Day 7; geometric mean (gCV%); read-out: AUCτ
quantity.kind: AUC (ng·h/mL)
The reply should contain only the number, in ng·h/mL.

Q: Need AUC of CC(C)(Sc1ccncc1-c1ccc(C#N)c2ccccc12)C(=O)O [verinurad] , thanks.
Result: 271

====

- assay.protocol: Study 2 plasma pharmacokinetics of verinurad
- Type: in vivo, human
- details: human, plasma, oral, 12 mg, healthy non-Asian participants, single dose of verinurad 4.5, 6, or 12 mg; read-out: geometric mean AUCτ, range over doses
quantity.kind: AUC

Q: Need AUC of "CC(C)(Sc1ccncc1-c1ccc(C#N)c2ccccc12)C(=O)O" , thanks.
Result: 68.1 to 168 ng·h/mL

====

- assay.protocol: Study 2 plasma pharmacokinetics of verinurad
- Assay type: in vivo, human
- details: human, plasma, oral, 12 mg, healthy non-Asian participants, single dose 12 mg verinurad; geometric mean (gCV%); read-out: AUC
quantity.kind: AUC
Answer format: number, then unit.

Q: Need AUC of "CC(C)(Sc1ccncc1-c1ccc(C#N)c2ccccc12)C(=O)O" , thanks.
Result: 206 ng·h/mL

====

- assay.protocol: Study 1 plasma pharmacokinetics of verinurad, allopurinol and oxypurinol
- Format: in vivo, human
- details: human, plasma, oral, healthy Asian participants, 24 mg verinurad + 300 mg allopurinol QD, Day 1; median (range); read-out: tmax
quantity.kind: Tmax (h)
The reply should contain only the number, in h.

Q: Need Tmax of "O=c1[nH]c(=O)c2c[nH]nc2[nH]1" , thanks.
Result: 3

Q: What about this compound? Oc1ncnc2[nH]ncc12 [allopurinol, reference compound]
Result: 2
